experimental_target: T1, monomeric recombinant cynomologus monkey Notch3 extracellular domain (containing EGF like domains 1-12) … (cynomologus monkey)
T1 construct: domain: EGF like domains 1-12; also called monomeric rcNotch3
assay_details: SPR BIAcore T100, antibody captured by anti-human IgG Fc, monomeric rcNotch3 analyte, 25 C
Record form. Attribute: Kd. Fill in for each entry.
State just the number; it will be interpreted in nM.

Exercise: Give the measured Kd of Hu4F11-71 (antibody, human IgG1, kappa, V domains shown, Humanized, human IgG1 kappa; Hv3-23 A28T T62S heavy + Kv2D-29 N28H kappa) VH: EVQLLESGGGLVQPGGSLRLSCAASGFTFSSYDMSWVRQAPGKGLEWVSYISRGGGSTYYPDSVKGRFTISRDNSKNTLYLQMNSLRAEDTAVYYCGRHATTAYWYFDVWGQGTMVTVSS VL: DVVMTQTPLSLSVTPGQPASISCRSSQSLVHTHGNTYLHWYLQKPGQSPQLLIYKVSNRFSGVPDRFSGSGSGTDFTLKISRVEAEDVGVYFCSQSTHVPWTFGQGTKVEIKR .
Solution: 2.7

Exercise: Give the measured Kd of Hu4F11-69 (antibody, human IgG1, kappa, V domains shown, Humanized, human IgG1 kappa; Hv3-23 A28T S31N T62S heavy + Kv2D-29 N28H kappa) VH: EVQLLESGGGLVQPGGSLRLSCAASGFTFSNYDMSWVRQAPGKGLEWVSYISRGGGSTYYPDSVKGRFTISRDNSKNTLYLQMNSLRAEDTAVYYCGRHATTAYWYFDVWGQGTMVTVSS VL: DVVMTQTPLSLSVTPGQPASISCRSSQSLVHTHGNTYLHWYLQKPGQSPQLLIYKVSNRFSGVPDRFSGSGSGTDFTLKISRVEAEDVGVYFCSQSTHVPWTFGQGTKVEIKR .
Solution: 7.7

Exercise: Give the measured Kd of Hu4F11-75 (antibody, human IgG1, kappa, V domains shown, Humanized, human IgG1 kappa; Hv3-23 A28T T62S heavy + Kv2D-29 N28Y kappa) VH: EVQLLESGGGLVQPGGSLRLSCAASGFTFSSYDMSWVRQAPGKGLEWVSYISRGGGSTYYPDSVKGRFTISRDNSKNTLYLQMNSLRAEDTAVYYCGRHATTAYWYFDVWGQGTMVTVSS VL: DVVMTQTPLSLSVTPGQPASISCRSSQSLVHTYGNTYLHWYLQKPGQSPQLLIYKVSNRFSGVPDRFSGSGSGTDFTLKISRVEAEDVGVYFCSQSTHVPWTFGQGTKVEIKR .
Solution: 3.7

Taken from patent US20180230213A1.
